Recorded Emax for the following molecules
molecular target: BRAF^V600E protein (Homo sapiens, UniProt P15056, V600E); assay: HiBiT cellular BRAF V600E degradation assay; type: cell-based; details: A375.10 cells, 24 h incubation; Emax = amount of residual protein remaining in the cell after compound treatment; read-out: HiBit 24 h Emax
Sequence (P15056 whole entry V600E): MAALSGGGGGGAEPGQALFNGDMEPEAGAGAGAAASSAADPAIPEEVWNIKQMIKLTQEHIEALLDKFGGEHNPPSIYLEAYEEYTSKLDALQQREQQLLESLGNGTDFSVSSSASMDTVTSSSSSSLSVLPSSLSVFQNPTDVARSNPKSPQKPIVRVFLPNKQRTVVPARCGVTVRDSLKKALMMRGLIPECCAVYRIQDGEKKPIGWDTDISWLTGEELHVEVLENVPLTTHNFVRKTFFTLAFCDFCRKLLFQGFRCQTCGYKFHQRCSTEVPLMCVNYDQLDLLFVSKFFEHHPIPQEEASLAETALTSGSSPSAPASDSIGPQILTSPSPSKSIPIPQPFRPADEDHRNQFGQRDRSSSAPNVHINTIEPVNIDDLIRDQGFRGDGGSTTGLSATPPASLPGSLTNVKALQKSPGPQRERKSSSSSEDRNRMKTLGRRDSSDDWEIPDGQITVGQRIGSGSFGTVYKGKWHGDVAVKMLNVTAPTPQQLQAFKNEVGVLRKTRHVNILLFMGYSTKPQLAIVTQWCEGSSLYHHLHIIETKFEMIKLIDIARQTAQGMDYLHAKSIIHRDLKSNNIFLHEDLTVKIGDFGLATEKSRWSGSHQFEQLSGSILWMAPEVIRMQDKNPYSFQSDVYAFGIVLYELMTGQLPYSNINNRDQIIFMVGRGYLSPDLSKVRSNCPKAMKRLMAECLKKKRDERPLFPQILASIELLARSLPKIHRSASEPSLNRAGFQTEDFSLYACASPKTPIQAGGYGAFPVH
Counter-ions that a name gives are not always drawn.
Form entry: value (%) — number only.

Previously resolved entries follow.
molecule="CCN(C)S(=O)(=O)Nc1ccc(F)c(C(=O)c2c[nH]c3ncc(-c4cnc(N5CCN(C(=O)CN6CCC(c7ccc(N[C@H]8CCC(=O)NC8=O)cc7)CC6)CC5)nc4)cc23)c1F (single isomer, unassigned) [Example A111]" unit_name=% measured_result=7
molecule="CCN(C)S(=O)(=O)Nc1ccc(F)c(C(=O)c2c[nH]c3ncc(-c4ccc(N5CCN(C(=O)CC6(O)CCN(c7ccc(NC8CCC(=O)NC8=O)cc7F)CC6)CC5)cc4)cc23)c1Cl (stereo not shown)" unit_name=% measured_result=10.9
molecule="CCN(C)S(=O)(=O)Nc1ccc(F)c(C(=O)c2c[nH]c3ncc(-c4cnc(N5CCN(C(=O)CC6(O)CCN(c7ccc(NC8CCC(=O)NC8=O)cc7F)CC6)CC5)c(S(C)(=O)=O)c4)cc23)c1F (stereo not shown)" unit_name=% measured_result=9.3
molecule="CCN(C)S(=O)(=O)Nc1ccc(F)c(C(=O)c2c[nH]c3ncc(-c4cnc(N5CCC(NCC(=O)N6CCC(c7ccc(NC8CCC(=O)NC8=O)cc7)CC6)CC5)nc4)cc23)c1F (stereo not shown) [Example A100, hydrochloride]" unit_name=% measured_result=11
molecule="CCN(C)S(=O)(=O)Nc1cccc(C(=O)c2c[nH]c3ncc(-c4cnc(N5CCN(C(=O)CC6(O)CCN(c7ccc(NC8CCC(=O)NC8=O)cn7)CC6)CC5)nc4)cc23)c1F (stereo not shown)" unit_name=% measured_result=36.9

Record CCN(C)S(=O)(=O)Nc1cccc(C(=O)c2c[nH]c3ncc(-c4cnc(N5CCN(C(=O)CN6CCC(c7ccc(NC8CCC(=O)NC8=O)cc7F)CC6)CC5)nc4)cc23)c1F (stereo not shown) , field Emax: 7.94

Query `CCN(C)S(=O)(=O)Nc1ccc(F)c(C(=O)c2c[nH]c3ncc(-c4ccc(N5CCN(C(=O)CN6CCC(c7ccc(O[C@H]8CCC(=O)NC8=O)cc7)CC6)CC5)nc4)cc23)c1F` yields Emax of 8

Item: CCN(C)S(=O)(=O)Nc1ccc(F)c(C(=O)c2c[nH]c3ncc(-c4cnc(N5CCN(C(=O)CC6(O)CCN(c7ccc(NC8CCC(=O)NC8=O)cc7C(F)F)CC6)CC5)nc4)cc23)c1F (stereo not shown) | Emax: 8.6

* * *

target: BRAF^V600E protein (Homo sapiens, UniProt P15056, V600E); experiment: HiBiT cellular BRAF V600E degradation assay; format: cell-based; conditions: A375.10 cells, 24 h incubation; Emax = amount of residual protein remaining in the cell after compound treatment; read-out: HiBit 24 h Emax
MEASURED ENDPOINT: Emax (%)
Could you give me the number in %? Just the number is fine.

Consider the worked cases shown below.
compound="CCN(C)S(=O)(=O)Nc1ccc(F)c(C(=O)c2c[nH]c3ncc(-c4cnc(N5CCN(C(=O)CC6CCN(c7c(F)cc(NC8CCC(=O)NC8=O)cc7F)CC6)CC5)nc4)cc23)c1F (stereo not shown)" unit_name=% measured_result=14.2
compound="CCN(C)S(=O)(=O)Nc1ccc(F)c(C(=O)c2c[nH]c3ncc(-c4cnc(N5CCN(C(=O)CN6CCC(c7ccc(N[C@@H]8CCC(=O)NC8=O)cc7)CC6)CC5)nc4)cc23)c1F (single isomer, unassigned) [Example A103]" unit_name=% measured_result=6
compound="CCN(C)S(=O)(=O)Nc1ccc(F)c(C(=O)c2c[nH]c3ncc(-c4ccc(OC5CCN(C(=O)CN6CCC(c7ccc(OC8CCC(=O)NC8=O)cc7)CC6)CC5)cc4)cc23)c1F (stereo not shown)" unit_name=% measured_result=13
compound=CCN(C)S(=O)(=O)Nc1ccc(F)c(C(=O)c2c[nH]c3ncc(-c4cnc(N5CCN(C(=O)CC6(O)CCN(c7ccc(N[C@H]8CCC(=O)NC8=O)cc7Cl)CC6)CC5)nc4)cc23)c1F unit_name=% measured_result=6.9
compound="O=C1CCC(c2ccc(C3CCN(CC(=O)N4CCN(c5ccc(-c6cnc7[nH]cc(C(=O)c8c(F)ccc(NS(=O)(=O)N9CCCC9)c8F)c7c6)cc5)CC4)CC3)cc2)C(=O)N1 (stereo not shown)" unit_name=% measured_result=11

What the record says about `O=C1CCN(c2cccc(C3CCN(CC(=O)N4CCN(c5ccc(-c6cnc7[nH]cc(C(=O)c8c(F)ccc(NS(=O)(=O)N9CCCC9)c8F)c7c6)cc5)CC4)CC3)c2)C(=O)N1` : Emax is 26

Lab note: measured Emax of CCN(C)S(=O)(=O)Nc1ccc(F)c(C(=O)c2c[nH]c3ncc(-c4ccc(CN5CCN(C(=O)CN6Cc7ccc(NC8CCC(=O)NC8=O)cc7C6)CC5)nc4)cc23)c1F (stereo not shown) was 20

// field: Emax; key: CCN(C)S(=O)(=O)Nc1ccc(F)c(C(=O)c2c[nH]c3ncc(-c4cnc(N5CCN(C(=O)CN6CCC(c7ccc(NC8CCC(=O)NC8=O)cc7)CC6)CC5)nc4)c(F)c23)c1F (stereo not shown) ; value = 8.1

Reported Emax for CCN(C)S(=O)(=O)Nc1ccc(F)c(C(=O)c2c[nH]c3ncc(-c4cnc(N5CCN(C(=O)CN6CCC(c7ccc8c(C9CCC(=O)NC9=O)nn(C)c8c7)CC6)CC5)nc4)cc23)c1F (stereo not shown) was 10.8

Kindly note the recorded Emax for O=C1CCC(Nc2ccc(C3CCN(CCCC(=O)N4CC(c5ccc(-c6cnc7[nH]cc(C(=O)c8c(F)ccc(NS(=O)(=O)N9CCCC9)c8F)c7c6)cc5)C4)CC3)cc2)C(=O)N1 (stereo not shown) , which is 12
